- Tested on: E. coli ATCC BAA-196_TEM-10
- test-summary: MIC by broth microdilution (CLSI), E. coli ATCC BAA-196
- Type: cell-based
- condition: Escherichia coli, ATCCBAA196; E. coli ATCC BAA-196, TEM-10, ESBL producing strain; 10000 cfu/well; cation-adjusted Mueller Hinton broth with 20 μM human apo-transferrin; read-out: minimum growth inhibition concentration (MIC)
Labelling: MIC reported below 2 µg/mL becomes True; at or above becomes False.

Nc1nc(/C(=N/OC[C@H](NC(=O)c2ccc(O)c(O)c2Cl)C(=O)[O-])C(=O)N[C@@H]2C(=O)N3C(C(=O)[O-])=C(C[N+]45CCC(CC4)CC5)CS[C@H]23)cs1.[Na+] [Compound I-23]
True
C[N+]1(CC2=C(C(=O)[O-])N3C(=O)[C@@H](NC(=O)/C(=N\O[C@@H](CNC(=O)c4ccc(O)c(O)c4Cl)C(=O)[O-])c4csc(N)n4)[C@H]3SC2)CC2CCCC2C1.[Na+] (stereo partly drawn) [Compound I-11]
True
NCC[N+]1(CC2=C(C(=O)[O-])N3C(=O)[C@@H](NC(=O)/C(=N\OC(C[C@H](NC(=O)c4ccc(O)c(O)c4Cl)C(=O)[O-])C(=O)O)c4csc(N)n4)[C@H]3SC2)CCCC1.[Na+] (stereo partly drawn) [Compound I-31]
True

Would you kindly verify if MIC of Nc1nc(/C(=N/OC[C@H](NC(=O)c2ccc(O)c(O)c2Cl)C(=O)[O-])C(=O)N[C@@H]2C(=O)N3C(C(=O)[O-])=C(Cn4ccc(=O)c(O)c4)CS[C@H]23)cs1.[Na+].[Na+] [Compound I-5] is strictly less than 2 µg/mL?
False

One more molecule: NCC[N+]1(CC2=C(C(=O)[O-])N3C(=O)[C@@H](NC(=O)/C(=N\OC(CNC(=O)c4ccc(O)c(O)c4Cl)C(=O)O)c4csc(N)n4)[C@H]3SC2)CCCC1 (stereo partly drawn) [Compound I-7]
True

One more molecule: Nc1nc(/C(=N/OC(C[C@H](NC(=O)c2ccc(O)c(O)c2Cl)C(=O)[O-])C(=O)[O-])C(=O)N[C@@H]2C(=O)N3C(C(=O)[O-])=C(C[N+]4(CCNC(=O)CC[C@H](N)C(=O)O)CCCC4)CS[C@H]23)cs1.[Na+].[Na+] (stereo partly drawn) [Compound I-32]
True

One more molecule: C[N+]1(CC2=C(C(=O)[O-])N3C(=O)[C@@H](NC(=O)/C(=N\O[C@H](C(=O)[O-])c4ccc(O)c(O)c4)c4csc(N)n4)[C@H]3SC2)CCCC1.[Na+] [Comparative Example compound 1, reference compound]
False

One more molecule: Nc1nc(/C(=N/O[C@H](C(=O)[O-])c2ccc(O)c(O)c2)C(=O)N[C@@H]2C(=O)N3C(C(=O)[O-])=C(C[N+]45CCC(CC4)CC5)CS[C@H]23)cs1.[Na+] [Comparative Example compound 2, reference compound]
False

====

- Test system: P. aeruginosa SR27001(MDRP, IMP-1+)
- test-summary: MIC by broth microdilution (CLSI), P. aeruginosa SR27001
- Type: cell-based
- condition: Pseudomonas aeruginosa; P. aeruginosa SR27001, MDRP, IMP-1, MBL producing carbapenem-resistant strain; 10000 cfu/well; cation-adjusted Mueller Hinton broth with 20 μM human apo-transferrin; read-out: minimum growth inhibition concentration (MIC)
measured-attribute: MIC (µg/mL)
Could you give me the number in µg/mL? Just the number is fine.

Some entries whose results are on file:
NCC[N+]1(CC2=C(C(=O)[O-])N3C(=O)[C@@H](NC(=O)/C(=N\OC(C[C@H](NC(=O)c4ccc(O)c(O)c4Cl)C(=O)[O-])C(=O)O)c4csc(N)n4)[C@H]3SC2)CCCC1.[Na+] (some centres unmarked) [Compound I-31]
1
Nc1nc(/C(=N/OC[C@H](NC(=O)c2ccc(O)c(O)c2Cl)C(=O)[O-])C(=O)N[C@@H]2C(=O)N3C(C(=O)[O-])=C(C[n+]4cccc5c4CCC5)CS[C@H]23)cs1.[Na+] [Compound I-3]
4
Nc1nc(/C(=N/O[C@@H](CNC(=O)c2ccc(O)c(O)c2Cl)C(=O)[O-])C(=O)N[C@@H]2C(=O)N3C(C(=O)[O-])=C(C[N+]45CCC(CNC(=O)CC[C@H](N)C(=O)O)(CC4)CC5)CS[C@H]23)cs1.[Na+] [Compound I-12]
4
Nc1nc(/C(=N/OC(CNC(=O)c2ccc(O)c(O)c2Cl)C(=O)[O-])C(=O)N[C@@H]2C(=O)N3C(C(=O)[O-])=C(C[N+]45CCCC4CCC5)CS[C@H]23)cs1.[Na+] (some centres unmarked) [Compound I-24]
16
Nc1nc(/C(=N/OC(CNC(=O)c2ccc(O)c(O)c2Cl)C(=O)[O-])C(=O)N[C@@H]2C(=O)N3C(C(=O)[O-])=C(C[n+]4cccc5c4CCC5)CS[C@H]23)cs1.[Na+] (some centres unmarked) [Compound I-13]
2

Please give the measured MIC for this compound: C[N+]1(CC2=C(C(=O)[O-])N3C(=O)[C@@H](NC(=O)/C(=N\OC(CNC(=O)c4ccc(O)c(O)c4Cl)C(=O)[O-])c4csc(N)n4)[C@H]3SC2)CCCC1.[Na+] (some centres unmarked) [Compound I-8]
8

One more compound: NCC[N+]1(CC2=C(C(=O)[O-])N3C(=O)[C@@H](NC(=O)/C(=N\OC(CNC(=O)c4ccc(O)c(O)c4Cl)C(=O)O)c4csc(N)n4)[C@H]3SC2)CCCC1 (some centres unmarked) [Compound I-7]
0.5
